Exercise: for every item that follows, state its recorded IC50.
Biological target: Growth hormone secretagogue receptor type 1 (Homo sapiens, UniProt Q92847)
Sequence (Q92847 whole entry): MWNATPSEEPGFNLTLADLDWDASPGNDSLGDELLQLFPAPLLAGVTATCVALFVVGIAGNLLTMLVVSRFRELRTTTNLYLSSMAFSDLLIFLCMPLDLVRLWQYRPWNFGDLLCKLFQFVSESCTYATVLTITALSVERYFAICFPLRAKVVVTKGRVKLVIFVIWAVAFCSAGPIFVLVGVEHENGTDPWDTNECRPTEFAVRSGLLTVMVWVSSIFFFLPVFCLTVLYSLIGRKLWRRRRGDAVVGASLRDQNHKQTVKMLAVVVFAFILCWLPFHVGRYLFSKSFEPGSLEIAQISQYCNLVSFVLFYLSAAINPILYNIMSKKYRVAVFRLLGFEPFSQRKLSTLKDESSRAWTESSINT
Test: Receptor Binding Studies and GHS-R Ca2+ Flux Assay
Details: pH 7.4; 22 °C; read-out: IC50
For clarity, give the value followed by its unit.

Lab note: molecule CCc1nc(N)nc(N)c1-c1ccc(NCc2ccc(S(=O)(=O)C(F)(F)F)cc2)cc1 tested on Growth hormone secretagogue receptor type 1 (Homo sapiens, UniProt Q92847); recorded IC50 was 21 nM

Value (IC50, Growth hormone secretagogue receptor type 1 (Homo sapiens, UniProt Q92847)) for record Nc1nc(N)c(-c2ccc(NCc3ccc(S(=O)(=O)C(F)(F)F)cc3)cc2)c(COCc2ccccc2)n1 = 1 nM
